meta.source: patent EP3212201B1

assayed.target: ACVR1B (ALK4) (Homo sapiens)
Sequence (P36896 24-505): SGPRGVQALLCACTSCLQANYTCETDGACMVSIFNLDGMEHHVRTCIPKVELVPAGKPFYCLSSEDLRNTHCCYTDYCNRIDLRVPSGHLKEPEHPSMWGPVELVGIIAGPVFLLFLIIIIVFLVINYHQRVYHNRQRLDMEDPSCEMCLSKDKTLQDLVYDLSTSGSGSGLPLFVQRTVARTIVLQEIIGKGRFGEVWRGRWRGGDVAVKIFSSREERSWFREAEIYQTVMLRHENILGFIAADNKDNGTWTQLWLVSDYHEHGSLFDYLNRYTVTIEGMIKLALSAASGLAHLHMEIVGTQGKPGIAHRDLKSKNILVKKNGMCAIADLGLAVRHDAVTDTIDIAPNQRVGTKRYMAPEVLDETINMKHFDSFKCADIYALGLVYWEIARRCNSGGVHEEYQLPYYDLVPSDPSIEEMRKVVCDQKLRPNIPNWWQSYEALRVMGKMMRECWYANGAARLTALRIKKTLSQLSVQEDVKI
assay.name: FRET-based coupled-enzyme protein kinase inhibition assay
Assay type: biochemical
protocol.conditions: compound at 10 µM, 1% DMSO
property.measured: inhibition at 10 µM
Quick note: number first, unit second.

Take a look at these entries with their results.
Nc1ncnc2c1ncn2[C@@H]1O[C@H](COC(=O)N2CCN(C(=O)N3CCOCC3)CC2)[C@@H](O)[C@H]1O [Compound C89]; 0%
CN1CCN(CCNC(=O)OC[C@H]2O[C@@H](n3cnc4c(N)ncnc43)[C@H](O)[C@@H]2O)CC1 [Compound C46]; 6%

Param item = Nc1ncnc2c1ncn2[C@@H]1O[C@H](COC(=O)NCCCc2nc3ccccc3[nH]2)[C@@H](O)[C@H]1O [Compound C1] ; retrieve measured inhibition at 10 µM.
2%

Quick one: Nc1ncnc2c1ncn2[C@@H]1O[C@H](COC(=O)N[C@@H]2CCN(Cc3ccccc3)C2)[C@@H](O)[C@H]1O [Compound C10]
4%

Quick one: Nc1ncnc2c1ncn2[C@@H]1O[C@H](COC(=O)N2CCC(Cc3ccc(F)cc3)C2)[C@@H](O)[C@H]1O (stereo partly shown) [Compound C66]
1%

Quick one: Nc1ncnc2c1ncn2[C@@H]1O[C@H](COC(=O)N2CCN(Cc3ccccc3)CC2CO)[C@@H](O)[C@H]1O (stereo partly shown) [Compound C13]
7%

Quick one: Nc1ncnc2c1ncn2[C@@H]1O[C@H](COC(=O)N2CCN(CCc3ccccc3)CC2)[C@@H](O)[C@H]1O [Compound C26]
0%

Quick one: CS(=O)(=O)N1CC2(CCN(C(=O)OC[C@H]3O[C@@H](n4cnc5c(N)ncnc54)[C@H](O)[C@@H]3O)CC2)c2ccccc21 [Compound C98]
-1%

Quick one: Nc1ncnc2c1ncn2[C@@H]1O[C@H](COC(=O)N2CCC[C@H]2CO)[C@@H](O)[C@H]1O [Compound C9]
-5%

Quick one: CC(C)N1CCC(NC(=O)OC[C@H]2O[C@@H](n3cnc4c(N)ncnc43)[C@H](O)[C@@H]2O)CC1 [Compound C19]
6%

Quick one: Nc1ncnc2c1ncn2[C@@H]1O[C@H](COC(=O)N2CCS(=O)(=O)CC2)[C@@H](O)[C@H]1O [Compound C100]
3%

Quick one: Nc1ncnc2c1ncn2[C@@H]1O[C@H](COC(=O)NCCN2CCCC2=O)[C@@H](O)[C@H]1O [Compound C22]
3%

Quick one: Nc1ncnc2c1ncn2[C@@H]1O[C@H](COC(=O)NC[C@H](O)CO)[C@@H](O)[C@H]1O [Compound C8]
0%

Quick one: N#CCCN1CCN(C(=O)OC[C@H]2O[C@@H](n3cnc4c(N)ncnc43)[C@H](O)[C@@H]2O)CC1 [Compound C70]
1%

Quick one: CN(C)CCNC(=O)OC[C@H]1O[C@@H](n2cnc3c(N)ncnc32)[C@H](O)[C@@H]1O [Compound C85]
0%

Quick one: C[C@@H](NC(=O)OC[C@H]1O[C@@H](n2cnc3c(N)ncnc32)[C@H](O)[C@@H]1O)c1ccc(Cl)cc1 [Compound C4]
1%
